Test system: rainbow trout (Oncorhynchus mykiss)
method.notes: Contribution of tissues to fish body burden
Format: in vivo
experimental.parameters: fraction, Mean
The label is Condition met for Contribution of Mucus to the fish's body burden below 0.1 and Condition not met for Contribution of Mucus to the fish's body burden equal to or exceeding 0.1.

{"columns": ["compound", "label"],
 "data": [
  ["CCCCCCCCCN [P9, Nonylamine]", "Condition not met"],
  ["CCCCCCCCCCCCCN(C)C [T13, N,N-dimethyltridecylamine]", "Condition met"],
  ["CCCCCCCCCCCCCCCCN [P16, hexadecylamine]", "Condition met"]
]}

Problem: Does CCCCCCCCCCCCN [P12, Dodecylamine] have Contribution of Mucus to the fish's body burden strictly under 0.1?
Result: Condition not met

The reported measurements were obtained from paper PMC7343282.
